Tested on: Surinam grass (Brachiaria decumbens)
Assay: Test B pre/postemergence
Type: in vivo
Settings: Preemergence, 500 g ai/ha; scale 0 to 100 (0 no effect, 100 complete control)
Readout label: Plant response rating, Surinam Grass
# print the numeric value only

Identify measured Plant response rating, Surinam Grass corresponding to CCOC(=O)c1nc(C2CC2)nc(NOC(C)(C)C)c1Br [Compound 55] 50

Identify measured Plant response rating, Surinam Grass corresponding to CCOC(=O)c1nc(C2CC2)nc(NOCc2ccccc2)c1Br [Compound 54] 0

Identify measured Plant response rating, Surinam Grass corresponding to CC(=O)NN=Cc1nc(C2CC2)nc(N)c1Br [Compound 51] 0

Identify measured Plant response rating, Surinam Grass corresponding to CCOC(=O)c1nc(C2CC2)nc(NNC(C)=O)c1Br [Compound 126] 20

###

System: crabgrass (Digitaria sanguinalis)
Experiment: Test C pre/postemergence
Type: in vivo
Conditions: Digitaria sanguinalis, post-emergence, Postemergence, 250 g ai/ha; scale 0 to 100; read-out: Plant response rating, Crabgrass
Please respond with reported pest or weed control at 250 g/ha for every item in the list.
Kindly report the value followed by its unit.

Answer briefly: pest or weed control at 250 g/ha recorded on crabgrass (Digitaria sanguinalis) for COC(=O)c1nc(C2CC2)nc(N)c1Br [Compound 2] 70%

Answer briefly: pest or weed control at 250 g/ha recorded on crabgrass (Digitaria sanguinalis) for CCOC(=O)c1nc(C2CC2)nc(N)c1F [Compound 30] 50%

Answer briefly: pest or weed control at 250 g/ha recorded on crabgrass (Digitaria sanguinalis) for CCOC(=O)c1nc(C2CC2)nc(NN)c1Br [Compound 42] 0%

Answer briefly: pest or weed control at 250 g/ha recorded on crabgrass (Digitaria sanguinalis) for CCOC(=O)c1nc(-c2ccc(Cl)cc2)nc(N)c1Cl [Compound 64] 90%

###

Tested on: common chickweed (Stellaria media)
Test: Test D pre/postemergence
Format: in vivo
Details: Postemergence, 62 g ai/ha, scale 0 to 100 (100 = complete control)
Readout label: Plant response rating, Chickweed
# print the numeric value only

Answer briefly: Plant response rating, Chickweed recorded on common chickweed (Stellaria media) for CCOC(=O)C(OC(C)=O)c1nc(C2CC2)nc(N)c1Br (stereo not shown) 60

Answer briefly: Plant response rating, Chickweed recorded on common chickweed (Stellaria media) for "CCOC(=O)Cc1nc(C2CC2)nc(N=CN(C)C)c1Br" 40

Answer briefly: Plant response rating, Chickweed recorded on common chickweed (Stellaria media) for "CCOC(=O)c1nc(C2CC2)nc(N)c1Cl" 100

Answer briefly: Plant response rating, Chickweed recorded on common chickweed (Stellaria media) for COC(=O)c1nc(C2CC2C)nc(N)c1Br (stereo not shown) 65

###

Tested on: early watergrass (Echinochloa oryzoides)
Test: Test E flooded paddy water application
Format: in vivo
Details: 250 g ai/ha; Flood; 21 days; scale 0 to 100 (0 no effect, 100 complete control)
Please respond with reported Watergrass, Early plant response rating for every item in the list.
# print the numeric value only

Identify measured Watergrass, Early plant response rating corresponding to Nc1nc(-c2ccc(Cl)cc2)nc(C(=O)O)c1Cl [Compound 65] 10

Identify measured Watergrass, Early plant response rating corresponding to CCOC(=O)c1nc(-c2ccc(Cl)cc2Cl)nc(N)c1Cl [Compound 72] 0

Identify measured Watergrass, Early plant response rating corresponding to Nc1nc(-c2ccc(Br)cc2)nc(C(=O)O)c1Cl [Compound 95] 0

Identify measured Watergrass, Early plant response rating corresponding to CCOC(=O)c1nc(-c2ccc(C)cc2)nc(N)c1Cl [Compound 62] 0

Identify measured Watergrass, Early plant response rating corresponding to CCOC(=O)c1nc(-c2ccc(Cl)c(Cl)c2)nc(N)c1Br [Compound 66] 0

Attribution: patent US8802597B2
